Listed next: entries and their corresponding kon1 (2:1 heterogeneous ligand model).
biological target: filamentous actin (F-actin) from rabbit skeletal muscle (rabbit, UniProt P68135 1-377); test: BLI; F-actin immobilised on Streptavidin (SA) biosensors through LAbio peptide; αcat-ABD in solution at various concentrations; 26 °C, Octet384; 2 mM Tris-HCl pH 8.0, 0.2 mM ATP, 0.5 mM DTT, 0.1 mM CaCl2, 50 mM KCl, 2 mM MgCl2, 0.1% BSA, 0.02% Tween-20; 2:1 heterogeneous ligand model; settings: both partners purified
Answer format: numeric, M⁻¹ s⁻¹ implied, no suffix.

αEcat-ABD V796A (domain or fragment, source: E. coli BL21-CodonPlus, purified (glutathione-sepharose, thrombin cleavage, Superdex 75); not shown: GST, N-terminal, cleaved) SRTSVQTEDDQLIAGQSARAIMAQLPQEQKAKIAEQVASFQEEKSKLDAEVSKWDDSGNDIIVLAKQMCMIMMEMTDFTRGKGPLKNTSDVISAAKKIAEAGSRMDKLGRTIADHCPDSACKQDLLAYLQRIALYCHQLNICSKAKAEVQNLGGELVVSGVDSAMSLIQAAKNLMNAVVQTVKASYVASTKYQKSQGMASLNLPAVSWKMKAPEKKPLVKREKQDETQTKIKRASQKKHVNPVQALSEFKAMDSI	211000

Let us move to another entry and its kon1 (2:1 heterogeneous ligand model).
# lookup: kon1 (2:1 heterogeneous ligand model) of αEcat-ABD V714A (domain or fragment, source: E. coli BL21-CodonPlus, purified (glutathione-sepharose, thrombin cleavage, Superdex 75); not shown: GST, N-terminal, cleaved) SRTSVQTEDDQLIAGQSARAIMAQLPQEQKAKIAEQVASFQEEKSKLDAEVSKWDDSGNDIIALAKQMCMIMMEMTDFTRGKGPLKNTSDVISAAKKIAEAGSRMDKLGRTIADHCPDSACKQDLLAYLQRIALYCHQLNICSKVKAEVQNLGGELVVSGVDSAMSLIQAAKNLMNAVVQTVKASYVASTKYQKSQGMASLNLPAVSWKMKAPEKKPLVKREKQDETQTKIKRASQKKHVNPVQALSEFKAMDSI 221000
